test: soluble on expression in E. coli; label from the status in PepcDB or PDB records
attribute measured: soluble on expression in E. coli

seq: NSSKSLEAELVRDRQELIDARKKELKAYMMMGVTAIKPLYDSDVNGSNKQAAKEILKAMRFESDGYFFAYDSQGINTLHAIKPSLEGKNLYDLKDENGVAVIAGLIDASQKGDGFLYFSWHKPTINAQAPKLGYAEYLQKWDWVLGTGIYIDDIDQQVAMQRELRTQELNQHT
value observed: soluble
--
seq: MAELTETSPETPETTEAIRAVEAFLNALQNEDFDTVDAALGDDLVYENVGFSRIRGGRRTATLLRRMQGRVGFEVKIHRIGADGAAVLTERTDALIIGPLRVQFWVCGVFEVDDGRITLWRDYFDVYDMFKGLLRGLVALVVPSLKATL
value observed: soluble
--
seq: MVKLIHTLADHGDDVNCCAFSFSLLATCSLDKTIRLYSLRDFTELPHSPLKFHTYAVHCCCFSPSGHILASCSTDGTTVLWNTENGQMLAVMEQPSGSPVRVCQFSPDSTCLASGAADGTVVLWNAQSYKLYRCGSVKDGSLAACAFSPNGSFFVTGSSCGDLTVWDDKMRCLHSEKAHDLGITCCDFSSQPVSDGEQGLQFFRLASCGQDCQVKIWIVSFTDILARRTEHQLKQFTEDWSEEDVSTWLCAQDLKDLVGIFKMNNIDGKELLNLTKESLADDLKIESLGLRSKVLRKIEELRTKVKSLSSGIPDEFICPITRELMKDPVIASDGYSYEKEAMENWISKKKRTSPMTNLVLPSAVLTPNRTLKMAINRWLETHQK
value observed: soluble

====

assay: soluble on expression in E. coli; label from the status in PepcDB or PDB records

seq: SEEITDGVNNMNLATDSQKKNRIQVSNTKKPLFFYVNLAKRYMQQYNDVELSALGMAIATVVTVTEILKNNGFAVEKKIMTSIVDIKDDARGRPVQKAKIEITLVKSEKFDELMAAANEEKEDAETQVQN
soluble on expression in E. coli: soluble
//
seq: MGFPIPDPYVWDPSFRTFYSIIDDEHKTLFNGIFHLAIDDNADNLGELRRCTGKHFLNEQVLMQASQYQFYDEHKKEHETFIHALDNWKGDVKWAKSWYVNHIKTIDFKYKGKI
soluble on expression in E. coli: soluble

====

assay: soluble on expression in E. coli; label from the status in PepcDB or PDB records

seq: MVYKTKLGEIEISDESIFTFEKGIPGFEHLRKFALVFPQETFPIGWLLSLEDSEVGLPVVDPKLVRADYDPAVPSEDLEEIEAENQEALLFFCVLTIPPGKPEKTTINLRAPIILNQKKKKGIQTILENEDYQLRHLLSEEIERSKTVVAAALEHHHHHH
soluble on expression in E. coli: soluble

seq: MQDTTLLQMITDDMVSARQLLELLQAESLILHGRDMSEMEQVLAQKQALVILLDQHGRKRSQVLAGMGLPANRSGLQQLASQSEVGEQLLTSSDELNALINECQTLNDQNGSLIQLQQISTAHQLRILNGGETPTLYDARGSTALRAKPRPLSQA
soluble on expression in E. coli: not soluble

seq: ILRTKAQFVAMNEASLMQINHEWLQGTQSKQVTSQGETWQIDKRAESTISPNVQRIEIQVSLFDTQQNKVEAGITNLVFFNYPQKENAS
soluble on expression in E. coli: not soluble

seq: NNADYIEMKVPAQPEYVGIIRLTLSGVASRMGYTYDEIEDLKIAVSEACTNAVQHAYKEDKNGEVSIRFGVFEDRLEVIVADEGDSFDFDQKQQDLGPYTPSHTVDQLSEGGLGLYLMETLMDEVRVQNHSGVTVAMTKYLNGERVDHDTTIKNYETN
soluble on expression in E. coli: not soluble

seq: AIACHTQVGGSMQVPEPRRPFTCSSENNVTNSFFEEAYSASFRSKLYNMVEEIEQERAKYCNSANLSYMDAFGVEKESIEEDYNKEEDRDSLCSVDIADNSETSNRSSEDLLCDNCSKSLMFLNNVFKWNDLLFCNLDCYTSAILKNQKGADVKHRVACSLSPTWHKDCVHSVQD
soluble on expression in E. coli: soluble

seq: MGSDKIHHHHHHMREEAPSRAQRVIDNNDILFQCVRPYQKNNYIHRILNTSNQQWVASTGYAQIRTTELPNYIYHLLNTDEFNRKVMVRCTGSSYPAINSEDLATIHLYYTPDKKEQLKISRLLDLLDKRIATQNKIIEKLQSLIKGIAQHCIKESTSGNTYVKLGDICQITTGKLDANAQVDNGIYPFFTCAEQPFKIDSFAFDTEALLISGNGANLGYINYYKGKFNAYQRTVSIR
soluble on expression in E. coli: not soluble

seq: MGGAVEVSATINNVGNYNAEEVVQLYIRDIVGNVTRPIKELKGFQRITLGKGESMVVTFKLHTDELAFYNQQMEYKPEAGLFHVWIGGDSSTTLKTEFEVTDLEHHHHHH
soluble on expression in E. coli: not soluble

seq: GSPREKVAMEYLQSASRVLTRSQLRDVVASSHLLQSEFMEIPMNFVDPKEIDIPRHGTKNRYKTILPNPLSRVCLRPKNITDSLSTYINANYIRGYSGKEKAFIATQGPMINTVNDFWQMVWQEDSPVIVMITKLKEKNEKCVLYWPEKRGIYGKVEVLVTGVTECDNYTIRNLVLKQGSHTQHVKHYWYTSWPDHKTPDSAQPLLQLMLDVEEDRLASEGRGPVVVHCSAGIGRTGCFIATSIGCQQLKEEGVVDALSIVCQLRVDRGGMVQTSEQYEFVHHALCLFESRLSPETV
soluble on expression in E. coli: soluble

====

assay: soluble on expression in E. coli; label from the status in PepcDB or PDB records

seq: MWRLRMSLGISEAFDLRPDYIISVIKDTRAKLVGFQFPEGLKRKGPELAKKVEKATGAEIIISGDPCFGACDLDRTLLDHVDILFHFGHAELEDIRLSNKVYFIETRSSVDVLHVIEKAVPELKGQKIGLITTVQHVHKLPDVCGVLERMGKTCVIGRGDSRIAYAGQVLGCNFSAARDEDCDEYLYIGSGDFHPLGVALSTKKRVLAADPFSGEVREVDPSRILRQRSAVIAKSLDAQVFGIIVSSKNGQKRMELASSLKELAKKHGKESHLILIDLVTPDQLLQFKVDAFVNTACPRLAIDEVGRFPAPMLTPQEFEIVLGEREWEKLVLDEITEEPVLEHHHHHH
soluble on expression in E. coli: not soluble
--
seq: MGSIPRVLISADRSSSGKTTISMGLMAALVSRGYKVQPFKVALDYIDPSYHTEITGRFCRNLDGYLMDEHGILDVYTHACETGGGADIAIIEGVRGLFEGFESLSDVGSTAQIAKILKCPVVFVINARSITRSAAALIGGYKNFDPDVEIAGVILNNIGGRRHAQKAKEAIEHYTGVPVLGIIPRDPSMQISMRHLGLMPALEGLEHHHHHH
soluble on expression in E. coli: not soluble

====

experiment: soluble on expression in E. coli; label from the status in PepcDB or PDB records

seq: MWFFNKNLKVLAPCDGTIITLDEVEDEVFKERMLGDGFAINPKSNDFHAPVSGKLVTAFPTKHAFGIQTKSGVEILLHIGLDTVSLDGNGFESFVTQDQEVNAGDKLVTVDLKSVAKKVPSIKSPIIFTNNGGKTLEIVKMGEVKQGDVVAILK
soluble on expression in E. coli: soluble
--
seq: MKLIVAVVQDQDSNRLLKTLTDHNFRVTKLATTGGFLKSGNTTFMIGVEDIRVNKALSLIKENGQKRDQMIAPVSPMGGNADSYVPYPVEVEVGGATVFVLPVDEFHQFLEHHHHHH
soluble on expression in E. coli: soluble
--
seq: MSLDYAQRAVQVDPPRRLTHEMDSWARNFVMLRTDVQGRPINRLEGVYVEHFPDDDSYHVTTPRAIGQQAGNPITIGVSKTAIMEQGGQRIVMNGDAHVHRQPDARNETLDVRSQQLILLPDDDVVFTDLPAQVNKGNSRMNGTGMHYNNKTRQLRVSAAADVEIAGTEGRKRQSTETPANSNQNKPEGHHHHHH
soluble on expression in E. coli: soluble

====

assay: soluble on expression in E. coli; label from the status in PepcDB or PDB records

seq: MQKKSIYVAYTGGTIGMQRSEQGYIPVSGHLQRQLALMPEFHRPEMPDFTIHEYTPLMDSSDMTPEDWQHIAEDIKAHYDDYDGFVILHGTDTMAYTASALSFMLENLGKPVIVTGSQIPLAELRSDGQINLLNALYVAANYPINEVTLFFNNRLYRGNRTTKAHADGFDAFASPNLPPLLEAGIHIRRLNTPPAPHGEGELIVHPITPQPIGVVTIYPGISADVVRNFLRQPVKALILRSYGVGNAPQNKAFLQELQEASDRGIVVVNLTQCMSGKVNMGGYATGNALAHAGVIGGADMTVEATLTKLHYLLSQELDTETIRKAMSQNLRGELTPDD
soluble on expression in E. coli: soluble

seq: MPKIVILPHQDLCPDGAVLEANSGETILDAALRNGIEIEHACEKSCACTTCHCIVREGFDSLPESSEQEDDMLDKAWGLEPESRLSCQARVTDEDLVVEIPRYTINHAREH
soluble on expression in E. coli: soluble

seq: MSLSRIIVVTSGKGGVGKTTSSAAIASGLALRGKKTAVIDFDIGLRNLDLIMGCERRVVYDFVNVINGEATLNQALIKDKRNENLFILPASQTRDKDALTKDGVQRVLNDLKEMGFDFIICDSPAGIEQGALMALYYADEAIVTTNPEVSSVRDSDRILGILDSKSMRAEQGQAPIKQHLLLTRYNPARVTQGEMLSVQDVEEILHVPLLGVIPESQAVLNASNKGVPVIFDDQSDAGQAYQDTVARLLGEQVEFRFLTEAKKGIFKRLFGGEGHHHHHH
soluble on expression in E. coli: soluble

seq: MGSDKIHHHHHHMMKAQFTLTPSESKRLIAKGVKALPILRKALQNHTIILAGGTTNGFLVEELLNETLAEKTRYTVGLIADGKTGESKEEQRIPPFIIAKGKALDRSLHWKDFLPQLEPGDVFIKGGNALDSTGLAAVLVSNSMAGTIGAALGPLYARGVRLVVPIGLEKLIPDVREAVEFMASAPADTALGAKTGLVPMLGATVVTEITALETLYQVTAKCIGAGGVAGSEGAVTLVIEGEAAEVESALSLIQSCKGEPPVR
soluble on expression in E. coli: not soluble

seq: VAYWLVKSEPSVWSWDQQVAKGAAGEAWTGVRNHSAKLHMVAMRRGDRAFYYHSNEGKEIVGIAEIIREAYPDPTDASGKFVCVDIKADKPLKTPVTLAAVKAEPRLADMALMKYSRLSVQPVTAEEWKLVCKMGGLLEHHHHHH
soluble on expression in E. coli: soluble

seq: MVKLLTINSHSWMEEDPQKKLEILGKTILENDYDVICVQEVNQLLHSEPAKDLPNYCQVAGTPAIHKDNYALQLVTFLLEQERVYYWSWAYNHIGYDRFQEGVAILSKTPLVSQGILISDVDDEHDYHTRRALLGKTKIDQEDIAIVSLHMSWWNKGFQGEWNKLERVLSNLKLPLLLMGDFNNPYENEGYQAILKSSLKLQDSHQSAKITYGKATIQKEIDGWQGNQEALKVDYVFLSSDWQVEKSEVIFDGKHYPMISDHCGLACQANLNK
soluble on expression in E. coli: not soluble
